biological target: XIAP BIR3 (Homo sapiens); construct: 40 nM of an IAP-BIR3; experiment: Fluorescence polarization binding of IAP antagonists to IAP-BIR3 (competition with AbuRPF-K(5-Fam)-NH2); conditions: Table 3, monomeric IAP antagonists (piperidine-substituted)
Recorded metric: Kd

Input: Given the entry CN[C@@H](C)C(=O)N[C@H](C(=O)N1CCC[C@H]1Cc1c(-c2ccc(F)cc2)n(C2CCNCC2)c2cc(F)ccc12)[C@@H](C)OC [II] , report its measured Kd.
Output: < 100 nM

Input: Given the entry CN[C@@H](C)C(=O)N[C@H](C(=O)N1C[C@@H](O)C[C@H]1Cc1c(-c2ccc(F)cc2)n(C2CCNCC2)c2cc(F)ccc12)[C@@H](C)OC [PP] , report its measured Kd.
Output: < 100 nM

Input: Given the entry CC[C@H](NC)C(=O)N[C@H](C(=O)N1CCC[C@H]1Cc1c(-c2ccc(F)cc2)n(C2CCNCC2)c2cc(F)ccc12)[C@@H](C)OC [JJ] , report its measured Kd.
Output: < 100 nM

====

molecular target: XIAP BIR3 (Homo sapiens); construct: 40 nM of an IAP-BIR3; assay: Fluorescence polarization binding of IAP antagonists to IAP-BIR3 (competition with AbuRPF-K(5-Fam)-NH2); details: Table 3, monomeric IAP antagonists (piperidine-substituted)
pKd: −log10 of the molar value.
Recorded metric: pKd

Smi | Value observed
CCN[C@@H](C)C(=O)N[C@H](C(=O)N1C[C@@H](O)C[C@H]1Cc1c(-c2ccc(F)cc2)n(C2CCNCC2)c2cc(F)ccc12)[C@@H](C)OC | > 7.00
CN[C@H](C(=O)N[C@H](C(=O)N1CCC[C@H]1Cc1c(-c2ccc(F)cc2)n(C2CCNCC2)c2cc(F)ccc12)[C@@H](C)OC)C1CC1 | 6.00 to 7.00

Input: Given the entry CN[C@H](C(=O)N[C@H](C(=O)N1C[C@@H](O)C[C@H]1Cc1c(-c2ccc(F)cc2)n(C2CCNCC2)c2cc(F)ccc12)[C@@H](C)OC)C1CC1 , report its measured pKd.
Output: 6.00 to 7.00

====

biological target: XIAP BIR3 (Homo sapiens); construct: 40 nM of an IAP-BIR3; test: Fluorescence polarization binding of IAP antagonists to IAP-BIR3 (competition with AbuRPF-K(5-Fam)-NH2); conditions: Table 3, monomeric IAP antagonists (piperidine-substituted)
pKd: −log10 of the molar value.
Recorded metric: pKd

Look over these answered cases.
Compound | pKd
CN[C@@H](C)C(=O)N[C@H](C(=O)N1C[C@@H](O)C[C@H]1Cc1c(-c2ccc(F)cc2)n(C2CCNCC2)c2cc(F)ccc12)C(C)(C)C [LL] | > 7.00
CN[C@@H](C)C(=O)N[C@H](C(=O)N1CCCC1Cc1c(-c2ccc(F)cc2)n(C2CCNCC2)c2cc(F)ccc12)C(C)(C)C (stereo partly drawn) [HH] | > 7.00

// next item, pKd requested
Input: Given the entry CN[C@H](C(=O)N[C@H](C(=O)N1C[C@@H](O)C[C@H]1Cc1c(-c2ccc(F)cc2)n(C2CCNCC2)c2cc(F)ccc12)C(C)(C)C)C1CC1 [OO] , report its measured pKd.
Output: < 5.00

====

// reported Kd per item
target: XIAP BIR3 (Homo sapiens, UniProt P98170); construct: 40 nM of an IAP-BIR3; test: Fluorescence polarization binding of IAP antagonists to IAP-BIR3 (competition with AbuRPF-K(5-Fam)-NH2); details: Table 2, dimeric IAP antagonists
Sequence (P98170 241-356 limits assumed): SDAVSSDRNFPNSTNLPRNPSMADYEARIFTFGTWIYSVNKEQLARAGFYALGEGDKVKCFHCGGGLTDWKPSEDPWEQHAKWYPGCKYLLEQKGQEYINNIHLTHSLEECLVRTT

Molecule | Kd
CN[C@@H](C)C(=O)N[C@H](C(=O)N1CCCC1Cc1c(-c2c(C[C@@H]3CCCN3C(=O)[C@@H](NC(=O)[C@H](C)NC)C(C)C)c3ccc(F)cc3n2C2O[C@@H](C)[C@@H](O)[C@@H](O)[C@@H]2O)[nH]c2cc(F)ccc12)C(C)C (stereo partly drawn) | < 0.1 µM

Input: Given the entry CN[C@@H](C)C(=O)N[C@H](C(=O)N1CCC[C@H]1Cc1c(-c2c(C[C@@H]3CCCN3C(=O)[C@@H](NC(=O)[C@H](C)NC)C(C)C)c3ccc(F)cc3n2C2OC[C@@H](O)[C@H](O)[C@H]2O)[nH]c2cc(F)ccc12)C(C)C (stereo partly drawn) , report its measured Kd.
Output: < 0.1 µM

Input: Given the entry CNC(C)C(=O)NC(C(=O)N1CCCC1Cc1c(-c2c(CC3CCCN3C(=O)C(NC(=O)C(C)NC)C(C)C)c3cc(F)ccc3n2C2OC(C)C(O)C(O)C2O)[nH]c2ccc(F)cc12)C(C)C (stereo not drawn) , report its measured Kd.
Output: < 0.1 µM
